Origin of values: patent US9233965B2

# Target under test: human CK1 delta (Homo sapiens (Human), UniProt P48730)
# Sequence (P48730 whole entry): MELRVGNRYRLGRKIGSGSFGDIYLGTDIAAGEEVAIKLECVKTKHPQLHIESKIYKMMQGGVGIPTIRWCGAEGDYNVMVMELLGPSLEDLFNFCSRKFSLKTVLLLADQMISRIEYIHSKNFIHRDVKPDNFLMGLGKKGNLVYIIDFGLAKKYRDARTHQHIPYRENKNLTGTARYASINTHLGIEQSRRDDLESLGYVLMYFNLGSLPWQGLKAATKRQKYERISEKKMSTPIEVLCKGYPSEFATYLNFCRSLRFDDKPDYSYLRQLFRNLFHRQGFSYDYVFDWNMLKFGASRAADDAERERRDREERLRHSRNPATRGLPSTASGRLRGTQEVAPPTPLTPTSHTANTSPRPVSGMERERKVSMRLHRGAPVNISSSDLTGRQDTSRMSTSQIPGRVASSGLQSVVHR
# Assay text: Test B: inhibitory activity on CK1 delta measured by FRET (Z'Lyte kinase assay kit)
# Measurement conditions: substrate peptide SER/THR 11 2 μM, ATP 4 times the KM

| Compound | IC50 (nM) |
| --- | --- |
| CC(C)(C)NC(=O)N1CCn2c(c(C(N)=O)c(-c3ccccc3)c2C2CC2)C1 [Compound 10] | 31 |

====

# IC50 measurements, system: casein kinase 1 epsilon (CK1 epsilon) (Homo sapiens (Human))
# Sequence (P49674 whole entry): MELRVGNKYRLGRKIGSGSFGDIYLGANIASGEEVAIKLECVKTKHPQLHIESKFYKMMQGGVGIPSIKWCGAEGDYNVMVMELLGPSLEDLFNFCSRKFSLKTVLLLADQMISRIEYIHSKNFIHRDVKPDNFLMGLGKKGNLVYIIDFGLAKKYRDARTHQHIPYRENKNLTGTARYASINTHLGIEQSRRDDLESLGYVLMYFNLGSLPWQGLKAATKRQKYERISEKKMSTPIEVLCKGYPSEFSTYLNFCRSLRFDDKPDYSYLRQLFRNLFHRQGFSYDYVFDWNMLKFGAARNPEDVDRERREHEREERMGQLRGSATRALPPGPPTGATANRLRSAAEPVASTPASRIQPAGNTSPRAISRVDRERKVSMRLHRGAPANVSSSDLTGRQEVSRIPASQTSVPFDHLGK

| Record smiles | Target under test | IC50 |
| --- | --- | --- |
| CC(C)(CO)CNC(=O)N1CCn2c(Cl)c(-c3cccc(F)c3)c(C(N)=O)c2C1 | casein kinase 1 epsilon (CK1 epsilon) (Homo sapiens (Human)) | 1 to 11 nM |
| Cc1nnc(-c2ccc(-c3c(C(N)=O)c4n(c3C3CC3)CCN(C(=O)NC(C)(C)C)C4)cc2)o1 | casein kinase 1 epsilon (CK1 epsilon) (Homo sapiens (Human)) | 65 nM |
| COc1ccc(-c2c(C(N)=O)c3n(c2Cl)CCN(C(=O)NC(C)(C)C)C3)cc1 | casein kinase 1 epsilon (CK1 epsilon) (Homo sapiens (Human)) | 1 to 5 nM |
| CC(C)(C)NC(=O)N1CCn2c(c(C(N)=O)c(-c3cccc(OC(F)(F)F)c3)c2C2CC2)C1 | casein kinase 1 epsilon (CK1 epsilon) (Homo sapiens (Human)) | 25 nM |
| CC(C)(C)NC(=O)N1CCn2c(c(C(N)=O)c(-c3ccc(-n4cccn4)cc3)c2C2CC2)C1 | casein kinase 1 epsilon (CK1 epsilon) (Homo sapiens (Human)) | 5 to 29 nM |
| CSc1ccc(-c2c(C(N)=O)c3n(c2C2CC2)CCN(C(=O)NC(C)(C)C)C3)cc1 | casein kinase 1 epsilon (CK1 epsilon) (Homo sapiens (Human)) | 1 to 2 nM |
| CON(C)C(=O)c1ccc(-c2c(C(N)=O)c3n(c2C2CC2)CCN(C(=O)NC(C)(C)C)C3)cc1 | casein kinase 1 epsilon (CK1 epsilon) (Homo sapiens (Human)) | 620 nM |
| COCC(C)(C)NC(=O)N1CCn2c(c(C(N)=O)c(-c3ccc(OC)cc3)c2C2CC2)C1 | casein kinase 1 epsilon (CK1 epsilon) (Homo sapiens (Human)) | 36 nM |
| COc1ccc(-c2c(C(N)=O)c3n(c2C2CC2)CCN(C(=O)NC2CC2)C3)cc1 | casein kinase 1 epsilon (CK1 epsilon) (Homo sapiens (Human)) | 28 to 57 nM |
| CC(C)(C)NC(=O)N1CCn2c(c(C(N)=O)c(-c3cccc(C(F)(F)F)c3)c2C2CC2)C1 | casein kinase 1 epsilon (CK1 epsilon) (Homo sapiens (Human)) | 19 to 57 nM |
| COc1ccc(-c2c(C(N)=O)c3n(c2C2CC2)CCN(C(=O)NC(C)(C)C)C3)cc1 | casein kinase 1 epsilon (CK1 epsilon) (Homo sapiens (Human)) | 46 to 75 nM |
| CC(C)(C)NC(=O)N1CCn2c(F)c(-c3ccccc3)c(C(N)=O)c2C1 | casein kinase 1 epsilon (CK1 epsilon) (Homo sapiens (Human)) | 5 to 28 nM |
| COc1ccc(-c2c(C(N)=O)c3n(c2C2CC2)CCN(C(=O)NC24CC5CC(CC2C5)C4)C3)cc1 | casein kinase 1 epsilon (CK1 epsilon) (Homo sapiens (Human)) | 7 nM |
| CC(C)c1ccc(-c2c(C(N)=O)c3n(c2C2CC2)CCN(C(=O)NC(C)(C)C)C3)cc1 | casein kinase 1 epsilon (CK1 epsilon) (Homo sapiens (Human)) | 450 to 1000 nM |
| NC(=O)c1c(-c2cccc(F)c2)c(Cl)n2c1CN(C(=O)NCCC(F)(F)F)CC2 | casein kinase 1 epsilon (CK1 epsilon) (Homo sapiens (Human)) | 2 to 16 nM |
| N#Cc1c(-c2cccc(F)c2)c(C(N)=O)c2n1CCN(C(=O)NC1CCOCC1)C2 | casein kinase 1 epsilon (CK1 epsilon) (Homo sapiens (Human)) | 9 nM |
